Kindly state inhibition for each of the entries shown.
Test: luminescence decrease from intact luciferase reporter – cell-based, single concentration, SaOS-2, counter-screen for Mdm2/MdmX interaction inhibitor project, confirmation (AID 504607);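 also: p53-null SaOS-2 cells with luciferase driven by a doxycycline-inducible promoter; compound on cells about two nights before reading with doxycycline added after day one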
Conditions: SaOS-2 full-length luciferase counterscreen, at 8 µM, stronger effect = higher value
Screen size: about 6,200 compounds; about 4,800 (77%) were called active. So high a share suggests a set chosen from earlier hits. A selection follows.
Hi! Could you send only the number? It should be in %, unit omitted.

Req: GET /values?readout=inhibition&item= `N/C(=N\OC(=O)c1ccc2c(c1)OCO2)c1ccc(Br)cc1`
Resp: 137

Req: Note, next up: `CC(=O)Nc1nc(C)c(-c2csc(Nc3ccc(S(N)(=O)=O)cc3)n2)s1`
Resp: 31.7

Req: Note, next up: `COc1ccc(Nc2oc(-c3ccccc3Cl)nc2C#N)cc1`
Resp: 79

Req: Note, next up: `COc1cccc(CNC(=O)c2nnn(CC(=O)Nc3cc(Cl)ccc3C)c2N)c1`
Resp: 47.8

Req: Note, next up: `C=CCn1c(C)cc(C(=O)CN2C(=O)c3ccccc3C2=O)c1C`
Resp: 103

Req: Note, next up: `CCCc1nc(NCc2ccc3c(c2)OCO3)c2nnn(Cc3ccccc3Cl)c2n1`
Resp: 91.5

Req: Note, next up: `O=C(/C(=C/c1cccc(Cl)c1)c1nc2ccccc2[nH]1)c1ccccc1`
Resp: 97.6

Req: Note, next up: `CN(NC(=O)c1ccccc1)c1nc2ccccc2nc1C(F)(F)F`
Resp: 68.8

Req: Note, next up: `Cc1cccc2sc(N(CCCN(C)C)C(=O)CCS(=O)(=O)c3ccccc3)nc12`
Resp: 14.4

Req: Note, next up: `C=CCn1c(C)cc(C2=NNC(=NCC)SC2)c1C`
Resp: 24.4

Req: Note, next up: `CN(NC(=O)c1ccccc1F)c1nc(C(F)(F)F)nc2ccccc12`
Resp: 63.5

Req: Note, next up: `COc1cc(NS(=O)(=O)c2ccc3ccccc3c2)c2ncccc2c1`
Resp: 22.5

Req: Note, next up: `O=C1/C(=C\c2ccccc2Cl)SC(=S)N1CCC(=O)N1CCCc2ccccc21`
Resp: 43.1

Req: Note, next up: COc1ccc(OC)c(C2C3=C(N=c4s/c(=C\c5cccc(O)c5)c(=O)n42)c2ccccc2CC3)c1 (stereo unspecified)
Resp: 41.8

Req: Note, next up: `COc1cc(NC(=O)c2[nH]cnc2C(N)=O)cc(C(=O)Nc2cccc(C(F)(F)F)c2)c1`
Resp: 50

Req: Note, next up: O=C(Nc1ccccc1Cl)/C(Cl)=C(\Cl)S(=O)c1ccccc1 (stereo unspecified)
Resp: 1.94

Req: Note, next up: `O=C(NNc1ccccc1Cl)C(O)(c1cccc(C(F)(F)F)c1)c1cccc(C(F)(F)F)c1`
Resp: 87.9

Req: Note, next up: `CSc1nc(N(C)NC(=O)c2cccc(C)c2)c2ccccc2n1`
Resp: 135

Req: Note, next up: `O=[N+]([O-])c1ccccc1S(=O)(=O)Nc1cccc2cccnc12`
Resp: 56.4

Req: Note, next up: `CCOc1ccc(-c2cc(C(=O)N/N=C/c3ccc(O)cc3)c3ccccc3n2)cc1`
Resp: 48.3

Req: Note, next up: `O=C1[C@H]2[C@@H](c3ccc(F)cc3)N3C(=O)N(c4ccc(C(F)(F)F)cc4)C(=O)[C@@]3(Cc3ccccc3)[C@H]2C(=O)N1C1CCCCC1`
Resp: 48.6

Data provenance: PubChem BioAssay AID504607
